target: human VR1 (Homo sapiens, UniProt Q8NER1); construct: expressed in transfected cells; host or cells: HEK293; test: Human VR1 functional assay (FLIPR intracellular Ca2+); type: cell-based; conditions: inhibition of capsaicin response, 5 μM; read-out: h % I (5 μM)
Sequence (Q8NER1 whole entry): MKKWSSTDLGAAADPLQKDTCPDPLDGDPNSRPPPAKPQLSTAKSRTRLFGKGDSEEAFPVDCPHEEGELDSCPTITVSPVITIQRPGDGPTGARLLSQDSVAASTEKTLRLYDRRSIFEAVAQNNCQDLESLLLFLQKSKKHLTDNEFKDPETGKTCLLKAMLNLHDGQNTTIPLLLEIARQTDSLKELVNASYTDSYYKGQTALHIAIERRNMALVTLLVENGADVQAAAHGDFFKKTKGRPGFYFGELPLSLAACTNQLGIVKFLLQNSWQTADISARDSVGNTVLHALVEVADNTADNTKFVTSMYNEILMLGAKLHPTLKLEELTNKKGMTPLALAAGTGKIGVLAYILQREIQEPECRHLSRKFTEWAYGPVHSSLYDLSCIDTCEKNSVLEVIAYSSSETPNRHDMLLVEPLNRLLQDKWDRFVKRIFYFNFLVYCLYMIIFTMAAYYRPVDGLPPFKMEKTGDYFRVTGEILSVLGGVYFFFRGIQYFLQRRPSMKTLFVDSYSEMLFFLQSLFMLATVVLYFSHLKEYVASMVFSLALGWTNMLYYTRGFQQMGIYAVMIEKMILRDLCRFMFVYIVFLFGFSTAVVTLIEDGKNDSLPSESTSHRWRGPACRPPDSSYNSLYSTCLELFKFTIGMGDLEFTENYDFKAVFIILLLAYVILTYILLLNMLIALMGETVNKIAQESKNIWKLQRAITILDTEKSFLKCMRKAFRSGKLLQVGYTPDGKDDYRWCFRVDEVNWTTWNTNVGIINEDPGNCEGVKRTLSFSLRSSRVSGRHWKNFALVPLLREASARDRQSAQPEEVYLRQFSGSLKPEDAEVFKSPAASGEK
property_name: inhibition at 5 µM (%)
Just the number please, in %, no unit attached.

{"compound": "Cc1cc(NC(=O)CCc2ccc(C(C)(C)C)cc2)cnc1-c1cccnc1 [Cpd 164]", "property_name": "inhibition at 5 µM", "test_result": 99}
{"compound": "O=C(CCc1ccc(C(F)(F)F)cc1)Nc1cnc(-c2ccc(O)cc2)c(C(F)(F)F)c1 [Cpd 221]", "property_name": "inhibition at 5 µM", "test_result": 100}
{"compound": "Cc1cc(NC(=O)CCc2ccc(C(C)(C)C)cc2)cnc1-c1ccncc1 [Cpd 165]", "property_name": "inhibition at 5 µM", "test_result": 99}

Please supply the value of reported inhibition at 5 µM for the item O=C(CCc1ccc(C(F)(F)F)cc1)Nc1cnc(-c2cccnc2)c(C(F)(F)F)c1 [Cpd 249]
100

State its inhibition at 5 µM: O=C(CCc1ccc(C(F)(F)F)cc1)Nc1ccc(-c2ccnc(F)c2)c(C(F)(F)F)c1 [Cpd 254]
98

Supply inhibition at 5 µM value. Item: COc1cccc(-c2ncc(NC(=O)CCc3ccc(C(C)(C)C)cc3)cc2C)c1 [Cpd 259]
90

----------
target: UniProt:Q8NER1; assay: Human VR1 functional assay (FLIPR intracellular Ca2+); settings: agonist-induced Ca2+ increase; read-out: h EC50
property_name: pEC50
When answering, recall that pEC50 equals minus log10 of the concentration in mol/L, and write that number alone.

{"structure_notation": "CC(C)(C)c1ccc(CCC(=O)Nc2ccc(-c3cccc(O)c3)c(CO)c2)cc1", "system_tested": "UniProt:Q8NER1", "pEC50": 7.19}

Fill in pEC50 for record `CC(C)(C)c1ccc(CCC(=O)Nc2ccc(-c3cccc(CN)c3)cc2)cc1`
5.78

Supply reported pEC50 belonging to this compound: `CC(C)(C)c1ccc(CCC(=O)Nc2ccc(-c3ccccc3O)c(CO)c2)cc1`
6.95

Specify pEC50 for `CC(C)(C)c1ccc(CCC(=O)Nc2ccc(-c3ccc(O)cc3)c(CO)c2)cc1` and stop.
7.03

Answer with the recorded pEC50 for the compound listed here: `CC(C)(C)c1ccc(CCC(=O)Nc2ccc(-c3cccc(NC(N)=O)c3)cc2)cc1`
6.54

Supply measured pEC50 of `CC(C)(C)c1ccc(CCC(=O)Nc2ccc(-c3cccc(O)c3)nc2)cc1` in your reply.
7.77

Fill in reported pEC50 for this entry: `CC(C)(C)c1ccc(CCC(=O)Nc2ccc(-c3cccc(C(=O)O)c3)cc2)cc1`
5.85

Look up pEC50 of `CC(C)(C)c1ccc(CCC(=O)Nc2ccc(-c3cccc(CO)c3)c(CO)c2)cc1` and report it.
6.61

Consider the compound `CC(C)(C)c1ccc(CCC(=O)Nc2ccccc2-c2ccccn2)cc1` and give its recorded pEC50.
6.03

Tell me its pEC50 given `CC(C)(C)c1ccc(CCC(=O)Nc2ccc(-c3ccncc3)cc2)cc1` as the entry.
7.74

Consider the compound `CC(C)(C)c1ccc(CCC(=O)Nc2ccc(-c3cncnc3)cc2)cc1` . State its measured pEC50.
6.11

Give reported pEC50 value for `CC(C)(C)c1ccc(CCC(=O)Nc2ccc(-c3cccc(OCCN)c3)cc2)cc1`
5.62
